molecular target: BRAF V600E (Homo sapiens (Human), UniProt P15056, V600E); assay: Kd affinity for BRAF V600E kinase
Sequence (P15056 whole entry V600E): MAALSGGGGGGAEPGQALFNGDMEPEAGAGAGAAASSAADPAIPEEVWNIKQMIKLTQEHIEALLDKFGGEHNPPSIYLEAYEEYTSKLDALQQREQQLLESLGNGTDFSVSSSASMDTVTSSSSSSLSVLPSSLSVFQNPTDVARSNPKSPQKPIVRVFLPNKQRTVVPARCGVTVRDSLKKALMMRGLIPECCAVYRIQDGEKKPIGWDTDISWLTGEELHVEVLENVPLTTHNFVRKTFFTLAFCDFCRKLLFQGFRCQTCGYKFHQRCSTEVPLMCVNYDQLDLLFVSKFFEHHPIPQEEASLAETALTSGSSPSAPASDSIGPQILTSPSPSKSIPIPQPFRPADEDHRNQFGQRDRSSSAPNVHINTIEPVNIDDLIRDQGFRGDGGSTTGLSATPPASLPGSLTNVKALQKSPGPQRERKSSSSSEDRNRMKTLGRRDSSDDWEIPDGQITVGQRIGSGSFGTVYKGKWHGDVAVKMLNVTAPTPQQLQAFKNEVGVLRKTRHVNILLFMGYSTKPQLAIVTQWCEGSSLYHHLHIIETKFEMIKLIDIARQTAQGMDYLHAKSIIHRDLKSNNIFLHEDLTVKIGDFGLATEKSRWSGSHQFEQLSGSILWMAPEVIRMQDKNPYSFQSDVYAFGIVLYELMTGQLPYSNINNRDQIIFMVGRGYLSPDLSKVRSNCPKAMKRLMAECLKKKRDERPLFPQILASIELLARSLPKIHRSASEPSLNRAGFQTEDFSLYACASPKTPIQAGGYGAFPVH
pKd: −log10 of the molar value.
# pKd per record follows
measure.name: pKd

1) Cn1cnc2ccc(Nc3c(Cl)ccc(NS(=O)(=O)N4CCCC4)c3F)cc2c1=O: 6.92
2) CCCS(=O)(=O)Nc1ccc(F)c(Oc2ccc3ncn(C)c(=O)c3c2)c1C#N: 9.70
3) CN(C)S(=O)(=O)Nc1ccc(Cl)c(Nc2ccc3ncn(C)c(=O)c3c2)c1F: 6.30

* * *

# EC50 per record follows
system: P-ERK in HCT116 cells expressing WT BRAF; test: HTRF assay for P-ERK determination in HCT116 cells (paradoxical BRAF activation); assay type: cell-based; settings: read-out: p-ERK EC50 (nM) conc. (nM) at which the compound induces P-ERK activation of 50% of that induced by dabrafenib (Positive control paradox inducer) HCT-116; HCT-116 cells, 1 hour drug incubation; not applicable if activation does not reach 50% of dabrafenib maximum
measure.name: EC50

1) Cn1cnc2ccc(Nc3c(Cl)ccc(NS(=O)(=O)N4CCCC4)c3F)cc2c1=O [AR-31]: > 1000 nM
2) CCCS(=O)(=O)Nc1ccc(F)c(Oc2ccc3ncn(C)c(=O)c3c2)c1C#N [AR-25]: 9.6 nM
3) CN(C)S(=O)(=O)Nc1ccc(Cl)c(Nc2ccc3ncn(C)c(=O)c3c2)c1F [AR-30]: > 1000 nM
